# System: Sagittaria pygmaea, L.
# method: Preemergence weed control under flooded paddy conditions, SAGPY (Arrowhead (Pygmaea)); also: meaning of each grade not given here
# Assay type: in vivo
# conditionSummary: Rate 0.1250 kg/ha; preemergence, flooded paddy; rated three to four weeks after treatment
Overview of reported herbicidal effect rating, SAGPY across a group of compounds:
API doc: respond with a numeric literal and nothing else, no unit.

Worked set:
The compound listed as `CN(C(=O)c1nsc2ccc(-n3c(=O)cc(C(F)(F)F)n(C)c3=O)cc12)c1ccc(Cl)cc1` has a reported herbicidal effect rating, SAGPY of 5.0

The compound listed as `Cn1c(C(F)(F)F)cc(=O)n(-c2ccc3snc(COCc4ccc([N+](=O)[O-])cc4)c3c2)c1=O` has a reported herbicidal effect rating, SAGPY of 2.0

The compound listed as `Cn1c(C(F)(F)F)cc(=O)n(-c2ccc3snc(COC(=O)c4ccccc4)c3c2)c1=O` has a reported herbicidal effect rating, SAGPY of 5.0

The compound listed as `Cn1c(C(F)(F)F)cc(=O)n(-c2ccc3snc(C(=O)NS(=O)(=O)c4ccc5ccccc5c4)c3c2)c1=O` has a reported herbicidal effect rating, SAGPY of 0.0

The compound listed as `Cn1c(C(F)(F)F)cc(=O)n(-c2ccc3snc(C(C#N)=CC4CCCC4)c3c2)c1=O` has a reported herbicidal effect rating, SAGPY of 0.0

The compound listed as `Cn1c(C(F)(F)F)cc(=O)n(-c2ccc3snc(COS(C)(=O)=O)c3c2)c1=O` has a reported herbicidal effect rating, SAGPY of 7.0

The compound listed as `C=CCC(C#N)(CC=C)c1nsc2ccc(-n3c(=O)cc(C(F)(F)F)n(C)c3=O)cc12` has a reported herbicidal effect rating, SAGPY of 8.0

The compound listed as CCS(=O)(=O)NC(=O)C(C)Oc1ccc(C)cc1-c1nsc2ccc(-n3c(=O)cc(C(F)(F)F)n(C)c3=O)cc12 (centres unmarked) has a reported herbicidal effect rating, SAGPY of 0.0

New cases:
The compound listed as `CN(C(=O)c1nsc2ccc(-n3c(=O)cc(C(F)(F)F)n(C)c3=O)cc12)S(C)(=O)=O` has a reported herbicidal effect rating, SAGPY of 5.0

The compound listed as `Cn1c(C(F)(F)F)cc(=O)n(-c2ccc3snc(COC(=O)Nc4ccccc4)c3c2)c1=O` has a reported herbicidal effect rating, SAGPY of 9.0

The compound listed as `Cc1ccc(OCC(=O)N(C)O)c(-c2nsc3ccc(-n4c(=O)cc(C(F)(F)F)n(C)c4=O)cc23)c1` has a reported herbicidal effect rating, SAGPY of 4.5

The compound listed as `CCOCN(C(=O)c1nsc2ccc(-n3c(=O)cc(C(F)(F)F)n(C)c3=O)cc12)S(C)(=O)=O` has a reported herbicidal effect rating, SAGPY of 7.0

The compound listed as `Cn1c(C(F)(F)F)cc(=O)n(-c2ccc3snc(C(C)(C)C(=O)OCc4ccccc4)c3c2)c1=O` has a reported herbicidal effect rating, SAGPY of 8.0

The compound listed as `CN(O)C(=O)c1nsc2ccc(-n3c(=O)cc(C(F)(F)F)n(C)c3=O)cc12` has a reported herbicidal effect rating, SAGPY of 0.0

The compound listed as `Cn1c(C(F)(F)F)cc(=O)n(-c2ccc3snc(C(C#N)=Cc4ccccc4F)c3c2)c1=O` has a reported herbicidal effect rating, SAGPY of 5.0

The compound listed as C=CCC(c1nsc2ccc(-n3c(=O)cc(C(F)(F)F)n(C)c3=O)cc12)S(C)(=O)=O (centres unmarked) has a reported herbicidal effect rating, SAGPY of 0.0

The compound listed as `Cn1c(C(F)(F)F)cc(=O)n(-c2ccc3snc(C(C#N)=Cc4ccc(O)cc4)c3c2)c1=O` has a reported herbicidal effect rating, SAGPY of 0.0

The compound listed as `Cn1c(C(F)(F)F)cc(=O)n(-c2cc3c(CBr)nsc3cc2F)c1=O` has a reported herbicidal effect rating, SAGPY of 9.0

The compound listed as `CCS(=O)(=O)NC(=O)c1nsc2ccc(-n3c(=O)cc(C(F)(F)F)n(C)c3=O)cc12` has a reported herbicidal effect rating, SAGPY of 9.0

The compound listed as `C#CCOC(=O)COc1ccc(OC)cc1-c1nsc2ccc(-n3c(=O)cc(C(F)(F)F)n(C)c3=O)cc12` has a reported herbicidal effect rating, SAGPY of 5.0

The compound listed as `CCOP(=O)(Cc1nsc2cc(F)c(-n3c(=O)cc(C(F)(F)F)n(C)c3=O)cc12)OCC` has a reported herbicidal effect rating, SAGPY of 8.5

The compound listed as `CC(C)S(=O)(=O)OCc1nsc2ccc(-n3c(=O)cc(C(F)(F)F)n(C)c3=O)cc12` has a reported herbicidal effect rating, SAGPY of 9.0

The compound listed as Cn1c(C(F)(F)F)cc(=O)n(-c2ccc3snc(C(Cc4ccccc4)S(C)(=O)=O)c3c2)c1=O (centres unmarked) has a reported herbicidal effect rating, SAGPY of 0.0

The compound listed as `Cn1c(C(F)(F)F)cc(=O)n(-c2ccc3snc(C(C#N)(Cc4ccccc4)Cc4ccccc4)c3c2)c1=O` has a reported herbicidal effect rating, SAGPY of 6.0

The compound listed as `COCc1nsc2cc(F)c(-n3c(=O)cc(C(F)(F)F)n(C)c3=O)cc12` has a reported herbicidal effect rating, SAGPY of 9.0

The compound listed as `Cn1c(C(F)(F)F)cc(=O)n(-c2ccc3snc(C(C#N)=Cc4ccc[nH]4)c3c2)c1=O` has a reported herbicidal effect rating, SAGPY of 0.0

The compound listed as `CCCCS(=O)(=O)NC(=O)COc1ccccc1-c1nsc2ccc(-n3c(=O)cc(C(F)(F)F)n(C)c3=O)cc12` has a reported herbicidal effect rating, SAGPY of 2.0

The compound listed as `Cc1ccc(OC(C)(C)C(=O)NS(C)(=O)=O)c(-c2nsc3ccc(-n4c(=O)cc(C(F)(F)F)n(C)c4=O)cc23)c1` has a reported herbicidal effect rating, SAGPY of 3.0

The compound listed as COC(C)c1nsc2ccc(-n3c(=O)cc(C(F)(F)F)n(C)c3=O)cc12 (centres unmarked) has a reported herbicidal effect rating, SAGPY of 7.5

The compound listed as `Cn1c(C(F)(F)F)cc(=O)n(-c2ccc3snc(COC(=O)Cc4ccc(Cl)cc4Cl)c3c2)c1=O` has a reported herbicidal effect rating, SAGPY of 2.0

The compound listed as `CON(C)C(=O)COc1ccccc1-c1nsc2ccc(-n3c(=O)cc(C(F)(F)F)n(C)c3=O)cc12` has a reported herbicidal effect rating, SAGPY of 9.0

The compound listed as `Cn1c(C(F)(F)F)cc(=O)n(-c2ccc3snc(C(C#N)=Cc4ccccn4)c3c2)c1=O` has a reported herbicidal effect rating, SAGPY of 3.0
